Taken from patent EP0700912A1.

Test system: S.aureus 209P (IFO 12732)
measurement type: MIC (µg/mL)

{"compound": "CC1COc2c(N3CCN(C)CC3)c(F)cc3c(=O)c(C(=O)O)cn1c23 (stereo not drawn) [Ofloxacin, reference compound]", "endpoint result": 0.39}
{"compound": "C[C@H]1CN(c2cc3c(cc2F)c(=O)c(C(=O)O)cn3-c2ccon2)C[C@H]1N", "endpoint result": 0.1}
{"compound": "Cl.N[C@H]1CCN(c2cc3c(cc2F)c(=O)c(C(=O)O)cn3-c2ccon2)C1", "endpoint result": 0.1}
{"compound": "N[C@H]1CCN(c2cc3c(c(Cl)c2F)c(=O)c(C(=O)O)cn3-c2ccon2)C1", "endpoint result": 0.2}
{"compound": "Nc1c(F)c(N2CC[C@H](N)C2)cc2c1c(=O)c(C(=O)O)cn2-c1ccon1", "endpoint result": 0.05}
{"compound": "C[C@H]1CN(c2cc3c(c(N)c2F)c(=O)c(C(=O)O)cn3-c2ccon2)C[C@H]1N", "endpoint result": 0.05}

* * *

Item-by-item account of ranking points
Test: Photo-toxicity: ear abnormality after intravenous dosing and ultraviolet exposure
Assay type: in vivo
Conditions: 40 mg/kg/10 mℓ intravenously, female ICR mouse, ultraviolet rays 4 hours; first column, headed 0 hour; 0 = no abnormality, 1 = slight erythema, 2 = medium erythema, 3 = heavy erythema or edema
measurement type: ranking points

{"molecule": "CCn1cc(C(=O)O)c(=O)c2cc(F)c(N3CCNCC3)nc21 [Enoxacin, reference compound]", "measurement type": "ranking points", "endpoint result": 1.0}
{"molecule": "C[C@H]1CN(c2cc3c(cc2F)c(=O)c(C(=O)O)cn3-c2ccon2)C[C@H]1N", "measurement type": "ranking points", "endpoint result": 0}
{"molecule": "Cl.N[C@H]1CCN(c2cc3c(cc2F)c(=O)c(C(=O)O)cn3-c2ccon2)C1", "measurement type": "ranking points", "endpoint result": 0}
{"molecule": "CCn1cc(C(=O)O)c(=O)c2cc(F)c(N3CCNCC3)cc21 [Norfloxacin, reference compound]", "measurement type": "ranking points", "endpoint result": 1.0}

* * *

Item-by-item account of ranking points
Test: Photo-toxicity: ear abnormality after intravenous dosing and ultraviolet exposure
Assay type: in vivo
Settings: 40 mg/kg/10 mℓ intravenously, female ICR mouse, ultraviolet rays 4 hours; third column, headed 0 hour; 0 = no abnormality, 1 = slight erythema, 2 = medium erythema, 3 = heavy erythema or edema

{"molecule": "Cl.N[C@H]1CCN(c2cc3c(cc2F)c(=O)c(C(=O)O)cn3-c2ccon2)C1 [Compound No. 4]", "ranking points": 0}
{"molecule": "CCn1cc(C(=O)O)c(=O)c2cc(F)c(N3CCNCC3)cc21 [Norfloxacin, reference compound]", "ranking points": 0}
{"molecule": "C[C@H]1CN(c2cc3c(cc2F)c(=O)c(C(=O)O)cn3-c2ccon2)C[C@H]1N [Compound No. 5]", "ranking points": 0}
{"molecule": "CCn1cc(C(=O)O)c(=O)c2cc(F)c(N3CCNCC3)nc21 [Enoxacin, reference compound]", "ranking points": 0.3}

* * *

Item-by-item account of ranking points
Assay: Photo-toxicity: ear abnormality after intravenous dosing and ultraviolet exposure
Format: in vivo
Conditions: 40 mg/kg/10 mℓ intravenously, female ICR mouse, ultraviolet rays 4 hours; second column, headed 0 hour; 0 = no abnormality, 1 = slight erythema, 2 = medium erythema, 3 = heavy erythema or edema

{"compound": "CCn1cc(C(=O)O)c(=O)c2cc(F)c(N3CCNCC3)nc21 [Enoxacin, reference compound]", "ranking points": 0.4}
{"compound": "Cl.N[C@H]1CCN(c2cc3c(cc2F)c(=O)c(C(=O)O)cn3-c2ccon2)C1 [Compound No. 4]", "ranking points": 0}
{"compound": "CCn1cc(C(=O)O)c(=O)c2cc(F)c(N3CCNCC3)cc21 [Norfloxacin, reference compound]", "ranking points": 1.0}
{"compound": "C[C@H]1CN(c2cc3c(cc2F)c(=O)c(C(=O)O)cn3-c2ccon2)C[C@H]1N [Compound No. 5]", "ranking points": 0}
